Every entry's value here was drawn from the supplement of paper PMC9233669.

The reader will find reported self-aminoacylation values listed item by item below.
# Test system: biotinyl-Val-oxazolone
# test description: self-aminoacylation, catalytic enhancement (BVO) (fold over background); higher = more active; k-Seq, kA / k0A0; sequences stand for … in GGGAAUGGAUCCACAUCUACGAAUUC…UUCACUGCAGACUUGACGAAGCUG
Variants at the floor of the assay were thinned out.

- entry sequence: "CUAGUUUAAACAAUCGGUCUG [Fam1A.1 aminoacylation ribozyme variant]"
  self-aminoacylation: 0.765
- entry sequence: "AAGUUUUCUAAGAGUCGCAAG [Fam3.1 aminoacylation ribozyme variant]"
  self-aminoacylation: 1.62
- entry sequence: "AAGUUUGCAAAUAGUCGCAAU [Fam3.1 aminoacylation ribozyme variant]"
  self-aminoacylation: 1.26
- entry sequence: "ACACACUUCAACCAAUCGGUC [Fam1B.1 aminoacylation ribozyme variant]"
  self-aminoacylation: 1.56
- entry sequence: "AUUACCCUGCUCAUCGAGUGU [Fam2.1 aminoacylation ribozyme variant]"
  self-aminoacylation: 0.78
- entry sequence: "AAGUUUGAUAAUCGUCGCAAG [Fam3.1 aminoacylation ribozyme variant]"
  self-aminoacylation: 1.13
- entry sequence: "AAGUUUGCUAAUAGACGCAUG [Fam3.1 aminoacylation ribozyme variant]"
  self-aminoacylation: 0.59
- entry sequence: "AUUCACCAAGGUAAUCGGGUG [Fam2.2 aminoacylation ribozyme variant]"
  self-aminoacylation: 3.19
- entry sequence: "AUUAACCUAGGUCAUCCGGUG [Fam2.2 aminoacylation ribozyme variant]"
  self-aminoacylation: 3.29
